Data credit: patent US20230000869A1

Target: ALK2 (Mus musculus)
Construct: endogenous in cells
Sequence (P37172 21-509): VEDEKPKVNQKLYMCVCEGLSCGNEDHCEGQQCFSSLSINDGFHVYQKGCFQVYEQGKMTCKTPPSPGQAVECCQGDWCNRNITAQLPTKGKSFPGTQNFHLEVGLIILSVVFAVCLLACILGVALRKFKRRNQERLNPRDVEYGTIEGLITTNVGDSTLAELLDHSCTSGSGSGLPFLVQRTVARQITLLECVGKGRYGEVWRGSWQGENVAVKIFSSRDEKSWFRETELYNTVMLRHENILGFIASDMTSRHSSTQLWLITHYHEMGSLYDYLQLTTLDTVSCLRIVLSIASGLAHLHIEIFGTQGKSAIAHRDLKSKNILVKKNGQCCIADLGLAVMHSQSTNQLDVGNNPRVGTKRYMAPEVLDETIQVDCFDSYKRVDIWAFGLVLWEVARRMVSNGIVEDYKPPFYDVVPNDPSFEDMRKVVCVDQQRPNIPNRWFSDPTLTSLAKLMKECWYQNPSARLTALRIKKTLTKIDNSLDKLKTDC
Experiment: Luciferase reporter gene assay for ALK2 activity (C2C12 BRE-Luc SMAD1/5/8 reporter, BMP6 agonist)
Details: BMP6 50 ng/mL
outcome measure: IC50 (nM)

Past entries and their recorded results:
{"columns": ["molecule", "assayed system", "unit", "IC50"],
 "data": [
  ["Cc1cc2c(-c3cnn4cc(N5CC(N6CCN(C)CC6)C5)cnc34)ccnc2cc1F [Compound 308]", "ALK2 (Mus musculus)", "nM", 159],
  ["CN1CCN(C2CCN(c3cnc4c(-c5ccnc6c(F)cccc56)cnn4c3)CC2)CC1 [Compound 260]", "ALK2 (Mus musculus)", "nM", 12],
  ["Cc1cc2nccc(-c3cnn4cc(N5CCC(N6CCN(C)CC6)CC5)cnc34)c2[nH]1 [Compound 227]", "ALK2 (Mus musculus)", "nM", 903],
  ["CN1CCN(C2CCN(c3cnc4c(-c5ccnc6ccc(Cl)cc56)cnn4c3)CC2)CC1 [Compound 241]", "ALK2 (Mus musculus)", "nM", 92],
  ["CNc1ccc2nccc(-c3cnn4cc(N5CCC(N6CCN(C)CC6)CC5)cnc34)c2c1 [Compound 279]", "ALK2 (Mus musculus)", "nM", 55],
  ["Cc1cc(-c2cnn3cc(N4CC(N5CCOCC5)C4)cnc23)c2ccccc2n1 [Compound 194]", "ALK2 (Mus musculus)", "nM", 221],
  ["Cc1cc(-c2cnn3cc(N4CCC(N5CCOCC5)CC4)cnc23)c2ccccc2n1 [Compound 11]", "ALK2 (Mus musculus)", "nM", 54],
  ["Cc1cc(-c2cnn3cc(N4CC(OCCN(C)C)C4)cnc23)c2ccccc2n1 [Compound 350]", "ALK2 (Mus musculus)", "nM", 477],
  ["COc1cc2nccc(-c3cnn4cc(N5CCC(N6CCN(C)CC6)CC5)cnc34)c2cc1OC [Compound 17]", "ALK2 (Mus musculus)", "nM", 681],
  ["NC(=O)c1ccc(-c2cnn3cc(N4CCC(N5CCOCC5)CC4)cnc23)c2ccccc12 [Compound 12]", "ALK2 (Mus musculus)", "nM", 87]
]}

A. CN1CCN(C2CCN(c3cnc4c(-c5ccnc6cc7c(cc56)OCO7)cnn4c3)CC2)CC1 [Compound 18]
B. CN1CCN(C2CCN(c3cnc4c(-c5ccnc6[nH]ccc56)cnn4c3)CC2)CC1 [Compound 247]
Data request: I would appreciate it if you could say which entry, A or B , has the lower IC50 value. Write down the label of the entry you select.
Data returned: B
(B: 13 nM, A: 29 nM)
